Catalogue of compounds with associated CC50
- assay_notes: microbe, parasite or virus in culture
- Assay type: functional
- conditions_used: Mycobacterium tuberculosis
Active and inactive are the calls of the source.
recorded_endpoint: CC50

> print(dat)
                                   molecule  experimental.result
1  COc1cc(C#Cc2c(-c3cncn3C)n(C)c3ccc(-c4cnc(N5CCOCC5)nc4)cc23)cc(OC)c1     29.3 µM (active)
2  c1cc2c3c(cccc3c1)NC1(CCC3(CC1)Nc1cccc4cccc(c14)N3)N2       20 µM (active)
3  Cc1ccc(OCc2cc(C(=O)N(C)Cc3cnc4ccccn34)no2)cc1C     > 40 µM (active)
4        S=C(Nc1ccc(Nc2ccccc2)cc1)Nc1ccccn1     > 40 µM (active)

---

- tested_target: Glyceraldehyde-3-phosphate dehydrogenase (Homo sapiens, UniProt P04406)
- Sequence (P04406 whole entry): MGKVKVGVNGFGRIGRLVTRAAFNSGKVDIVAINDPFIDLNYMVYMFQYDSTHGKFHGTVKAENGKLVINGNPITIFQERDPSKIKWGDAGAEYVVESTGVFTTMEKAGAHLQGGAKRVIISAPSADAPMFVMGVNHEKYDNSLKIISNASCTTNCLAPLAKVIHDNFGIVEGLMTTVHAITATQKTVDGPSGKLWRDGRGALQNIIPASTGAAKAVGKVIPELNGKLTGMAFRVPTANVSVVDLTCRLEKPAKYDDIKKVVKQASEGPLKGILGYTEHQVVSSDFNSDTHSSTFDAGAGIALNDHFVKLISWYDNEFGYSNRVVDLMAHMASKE
Active and inactive are the calls of the source.
Catalogue of molecules with associated IC50
recorded_endpoint: IC50

> print(dat)
                                   molecule  recorded.endpoint    experimental.result
1          O=C1C(Cl)=C(Cl)C(=O)N1c1ccccc1Cl               IC50  > 100 µM (not active)
2             O=C1c2ccccc2C(=O)N1c1nnc[nH]1               IC50  > 100 µM (not active)
3  Cc1ccc(NC2=C(Cl)C(=O)N(c3ccc(C)cc3)C2=O)cc1               IC50  > 100 µM (not active)
4  O=C1C(Cl)=C(N2CCN(c3ccc(Cl)c(Cl)c3)CC2)C(=O)N1c1ccc(Cl)c(Cl)c1               IC50  > 100 µM (not active)
5  CC(C)(C)C(=O)COC(=O)c1cc(-c2ccc(Br)cc2)n[nH]1               IC50  > 100 µM (not active)
6              Cc1ccc(CC(=O)Nc2cc(C)on2)cc1               IC50       93.8 µM (active)

---

Recorded below: AC50, system Cytochrome P450 2C9 (Homo sapiens).
recorded_endpoint: AC50

> print(dat)
                                   molecule     experimental.result
1  COC(=O)c1cc(OC)c(OC)cc1NC(=O)CSc1ccc(C)cc1  7.94 µM (inconclusive)
2  COCCn1c(=O)c(-c2cc(F)cc(F)c2)nc2cnc(Oc3ccccc3)nc21    20 µM (inconclusive)
3  CCCCCC1CCC(C(=O)NN=C(S)NCC)CC1 (configuration not stated)  1.78 µM (inconclusive)
4      CCn1c(Cc2ccccc2)nnc1SCC(=O)NC(C)(C)C  12.6 µM (inconclusive)
5                  CC(C)NCCCOc1ccc(Cl)cc1Br  4.47 µM (inconclusive)
6    NC(=O)CN1CCN(c2nc(-c3ccc(F)cc3)cs2)CC1  6.31 µM (inconclusive)
7    CCNc1ncc2nc(-c3cccs3)c(=O)n(CCC#N)c2n1  12.6 µM (inconclusive)

---

- tested_target: Fatty acid synthase (Homo sapiens)
- Sequence (P49327 whole entry): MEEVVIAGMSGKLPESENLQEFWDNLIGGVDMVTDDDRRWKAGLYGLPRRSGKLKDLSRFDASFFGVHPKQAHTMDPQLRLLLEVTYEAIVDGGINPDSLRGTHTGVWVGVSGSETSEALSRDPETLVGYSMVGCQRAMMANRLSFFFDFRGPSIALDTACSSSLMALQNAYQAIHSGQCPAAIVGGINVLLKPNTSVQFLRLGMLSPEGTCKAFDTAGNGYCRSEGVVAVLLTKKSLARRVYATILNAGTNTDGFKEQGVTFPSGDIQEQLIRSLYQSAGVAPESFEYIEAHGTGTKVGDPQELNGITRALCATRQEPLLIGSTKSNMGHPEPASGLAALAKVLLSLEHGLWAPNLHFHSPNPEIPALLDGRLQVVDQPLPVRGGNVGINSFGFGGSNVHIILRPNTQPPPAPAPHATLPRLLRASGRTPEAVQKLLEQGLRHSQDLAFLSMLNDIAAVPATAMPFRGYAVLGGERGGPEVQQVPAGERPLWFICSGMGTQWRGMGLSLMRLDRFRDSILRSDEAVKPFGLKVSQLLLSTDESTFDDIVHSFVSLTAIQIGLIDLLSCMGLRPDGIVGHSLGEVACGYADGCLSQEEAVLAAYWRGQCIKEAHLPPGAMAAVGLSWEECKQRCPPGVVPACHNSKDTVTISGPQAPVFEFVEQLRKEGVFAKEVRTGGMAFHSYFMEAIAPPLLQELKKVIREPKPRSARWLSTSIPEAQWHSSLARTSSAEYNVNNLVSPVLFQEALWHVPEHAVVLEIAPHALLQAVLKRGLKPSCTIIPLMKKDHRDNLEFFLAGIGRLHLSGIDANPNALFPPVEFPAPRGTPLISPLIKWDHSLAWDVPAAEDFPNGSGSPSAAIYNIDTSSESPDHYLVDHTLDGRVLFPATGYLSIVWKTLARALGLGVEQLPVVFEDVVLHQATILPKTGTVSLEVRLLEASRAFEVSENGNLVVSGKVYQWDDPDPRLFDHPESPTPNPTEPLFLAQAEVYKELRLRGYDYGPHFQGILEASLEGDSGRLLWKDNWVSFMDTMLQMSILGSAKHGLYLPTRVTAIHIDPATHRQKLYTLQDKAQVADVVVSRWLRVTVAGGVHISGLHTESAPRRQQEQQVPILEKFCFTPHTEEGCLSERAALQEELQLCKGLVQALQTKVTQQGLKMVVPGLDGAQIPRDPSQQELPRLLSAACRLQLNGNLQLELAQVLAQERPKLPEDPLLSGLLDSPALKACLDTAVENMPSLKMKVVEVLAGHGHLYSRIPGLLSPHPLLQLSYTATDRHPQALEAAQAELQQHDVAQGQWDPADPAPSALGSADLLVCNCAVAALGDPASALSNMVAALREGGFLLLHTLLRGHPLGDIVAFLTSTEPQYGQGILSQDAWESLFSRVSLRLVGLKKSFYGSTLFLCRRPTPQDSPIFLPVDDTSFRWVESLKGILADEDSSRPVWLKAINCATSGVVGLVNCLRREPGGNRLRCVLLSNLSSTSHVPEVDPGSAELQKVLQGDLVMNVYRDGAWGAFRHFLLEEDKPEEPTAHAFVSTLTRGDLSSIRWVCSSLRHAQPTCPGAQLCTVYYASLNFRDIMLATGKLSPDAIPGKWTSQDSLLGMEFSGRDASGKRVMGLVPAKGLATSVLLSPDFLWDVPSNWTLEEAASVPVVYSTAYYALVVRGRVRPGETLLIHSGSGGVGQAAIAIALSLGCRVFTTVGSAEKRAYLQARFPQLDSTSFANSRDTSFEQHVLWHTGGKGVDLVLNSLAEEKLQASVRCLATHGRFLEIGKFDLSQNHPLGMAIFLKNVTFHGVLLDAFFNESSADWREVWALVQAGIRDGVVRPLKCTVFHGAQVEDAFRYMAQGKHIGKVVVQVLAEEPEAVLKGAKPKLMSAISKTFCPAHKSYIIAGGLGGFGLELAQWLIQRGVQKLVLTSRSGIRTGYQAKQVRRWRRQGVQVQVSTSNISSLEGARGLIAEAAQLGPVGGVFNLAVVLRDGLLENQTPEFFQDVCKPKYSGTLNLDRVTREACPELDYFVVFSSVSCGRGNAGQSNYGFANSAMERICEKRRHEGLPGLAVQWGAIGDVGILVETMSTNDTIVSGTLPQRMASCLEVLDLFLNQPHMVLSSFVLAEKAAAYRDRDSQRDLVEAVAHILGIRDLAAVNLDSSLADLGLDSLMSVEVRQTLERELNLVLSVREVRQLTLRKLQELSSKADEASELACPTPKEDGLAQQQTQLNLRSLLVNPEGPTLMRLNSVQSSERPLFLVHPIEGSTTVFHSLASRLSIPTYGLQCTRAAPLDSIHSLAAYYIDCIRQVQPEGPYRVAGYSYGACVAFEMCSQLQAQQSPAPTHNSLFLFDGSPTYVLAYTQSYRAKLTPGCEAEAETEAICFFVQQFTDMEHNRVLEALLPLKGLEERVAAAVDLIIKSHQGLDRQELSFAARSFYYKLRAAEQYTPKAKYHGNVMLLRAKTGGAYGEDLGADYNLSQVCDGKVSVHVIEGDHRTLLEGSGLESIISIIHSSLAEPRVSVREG
- assay_notes: inhibition of human FAS-TE enzyme activity – biochemical, endpoint fluorescence intensity, uHTS hits, dose response (AID 624327);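 further: fluorescence from hydrolysis of an O-methyl fluorescein acyl ester substrate by the enzyme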
- Format: functional
Calls of active or inactive are those of the source.
recorded_endpoint: IC50

> print(dat)
                                   molecule  recorded.endpoint  experimental.result
1  Cc1ccc(S(=O)(=O)Nc2cccc(-c3ccc4nncn4n3)c2)cc1               IC50     15.7 µM (active)
2  CSc1nc(N)c(N=Nc2ccc([As](=O)(O)O)cc2)c(O)n1               IC50     11.4 µM (active)
3  O=C(COc1cccc(Oc2ccccc2)c1)Nc1ccc(SC(F)F)cc1               IC50     4.12 µM (active)
4  COc1cc(N(C)C)c([N+](=O)[O-])cc1C(=O)NC(C)CNc1ccc([N+](=O)[O-])cc1Cl (centres undefined)               IC50     6.26 µM (active)

---

- tested_target: UniProtKB P55789
- Sequence (P55789 whole entry): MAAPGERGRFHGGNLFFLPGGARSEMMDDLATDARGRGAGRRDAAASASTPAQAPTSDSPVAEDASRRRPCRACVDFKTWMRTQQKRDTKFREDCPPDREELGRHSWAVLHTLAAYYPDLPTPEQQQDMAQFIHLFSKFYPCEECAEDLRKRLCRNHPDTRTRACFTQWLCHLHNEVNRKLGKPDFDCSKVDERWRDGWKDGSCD
- assay_notes: ALR-catalysed DTT oxidation blockers – biochemical, H2O2 detection, luminescence, cherry-pick, dose response (AID 493248)
Active and inactive are the calls of the source.
Catalogue of molecules with associated AC50
recorded_endpoint: AC50

> print(dat)
                                   molecule  recorded.endpoint  experimental.result
1  Cc1ccc(S(=O)(=O)NNC(=O)C(=O)NNc2ccccn2)cc1               AC50    0.213 µM (active)
2           COc1cc(/C=N/Nc2nc(O)nnc2C)ccc1O               AC50     4.13 µM (active)
3  Cc1cc(-c2nnc(S)n2/N=C/c2ccc(Cl)c([N+](=O)[O-])c2)[nH]n1               AC50     3.45 µM (active)

---

- tested_target: Microphthalmia-associated transcription factor (Homo sapiens, UniProt O75030)
- Sequence (O75030 whole entry): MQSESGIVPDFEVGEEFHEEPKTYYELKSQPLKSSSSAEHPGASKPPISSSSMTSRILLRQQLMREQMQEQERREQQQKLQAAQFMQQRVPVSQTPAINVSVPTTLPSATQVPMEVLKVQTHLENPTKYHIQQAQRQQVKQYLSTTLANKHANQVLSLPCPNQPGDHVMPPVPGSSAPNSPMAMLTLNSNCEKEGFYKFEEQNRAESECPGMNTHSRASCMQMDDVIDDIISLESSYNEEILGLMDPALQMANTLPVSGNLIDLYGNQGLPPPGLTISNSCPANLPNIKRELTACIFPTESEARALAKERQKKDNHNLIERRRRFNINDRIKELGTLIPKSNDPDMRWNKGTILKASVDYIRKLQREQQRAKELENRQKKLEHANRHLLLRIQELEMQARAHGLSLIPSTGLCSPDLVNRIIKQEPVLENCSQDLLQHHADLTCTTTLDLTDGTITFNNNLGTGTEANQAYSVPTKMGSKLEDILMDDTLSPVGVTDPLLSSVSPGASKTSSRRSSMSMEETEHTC
- assay_notes: reducers of TRPM1 reporter luminescence, concentration series – cell-based, SK-MEL-5, cherry-picked, set 3, MITF inhibitor project, dose response (AID 493073);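 further: SK-MEL-5 melanoma cells with luciferase driven by the MITF target TRPM1 promoter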
- Assay type: functional
Active and inactive are the calls of the source.
Catalogue of molecules with associated AC50
recorded_endpoint: AC50

> print(dat)
                                   molecule  experimental.result
1  CN(C)S(=O)(=O)c1cccc(NC(=O)CSc2nc3c(cc2C#N)C(=O)CC(C)(C)C3)c1     9.02 µM (active)
2  COc1ccc(/C=C2\SC(=O)N(CCCC(=O)Nc3cc(Cl)ccc3C(=O)O)C2=O)cc1    0.528 µM (active)
3  Cc1cccc(NC(=O)CNC(=O)Cn2ncc(Cl)c(Cl)c2=O)c1C     13.4 µM (active)
4  CC1CN(/N=C/c2ccc([N+](=O)[O-])o2)C(=N)O1 (stereo not given)     24.1 µM (active)
5  Cc1cc2ncn(/N=C/c3ccc([N+](=O)[O-])o3)c2cc1C     21.9 µM (active)

---

Catalogue of molecules with associated EC50
- Tested on: Streptococcus
- assay_notes: GAS UMAA2166 growth inhibition – luminescence, BacTiterGlo, counter-screen for streptokinase expression inhibitor project, dose response (AID 1915);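 further: potency for reduction of bacterial viability or growth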
- Assay type: functional, organism-based
Activity calls are given as the source filed them.
recorded_endpoint: EC50

> print(dat)
                                   molecule  experimental.result
1  COc1ccc(Cl)cc1NC(=O)CN1CCC(n2nnc3cc(C)ccc32)CC1     93.4 µM (active)
2  CCCNC(=O)c1ccc(N2CCC3(CC2)CC(c2ccccc2)=NO3)c(NC(=O)c2ccco2)c1     38.2 µM (active)
3      O=C(Nc1nnc(-c2ccccc2)o1)c1ccc(Cl)cc1     0.67 µM (active)
4  COc1ccc(C(=O)/C(C#N)=N/Nc2cccc([N+](=O)[O-])c2)cc1     94.3 µM (active)

---

- tested_target: Type-1 angiotensin II receptor (Homo sapiens, UniProt P30556)
- Sequence (P30556 whole entry): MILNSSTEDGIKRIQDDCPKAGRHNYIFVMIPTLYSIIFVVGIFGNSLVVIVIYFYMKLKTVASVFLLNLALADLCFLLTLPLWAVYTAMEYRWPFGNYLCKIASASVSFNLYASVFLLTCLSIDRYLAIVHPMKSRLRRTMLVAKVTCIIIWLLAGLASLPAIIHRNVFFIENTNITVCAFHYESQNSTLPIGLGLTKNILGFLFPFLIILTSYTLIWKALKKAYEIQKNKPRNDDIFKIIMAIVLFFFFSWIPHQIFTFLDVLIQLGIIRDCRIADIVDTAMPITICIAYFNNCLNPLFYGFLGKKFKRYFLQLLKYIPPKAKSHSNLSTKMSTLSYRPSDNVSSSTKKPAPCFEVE
- assay_notes: antagonism of angiotensin II type 1 receptor – cell-based, uHTS hits, selectivity assay for APJ receptor antagonist project, dose response (AID 463214);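 further: antagonist potency against angiotensin II stimulated AT1 response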
- Format: functional
The source made the active and inactive calls.
Catalogue of compounds with associated IC50
recorded_endpoint: IC50

> print(dat)
                                   molecule                             tested.target   experimental.result
1              Cc1ccccc1NCC(=O)c1ccc(Br)cc1  Type-1 angiotensin II receptor (Homo sapiens, UniProt P30556)      8.62 µM (active)
2  Cc1cc(C)c2sc(N(CCCN(C)C)C(=O)c3ccc(S(=O)(=O)N4CCCc5ccccc54)cc3)nc2c1  Type-1 angiotensin II receptor (Homo sapiens, UniProt P30556)  > 40 µM (not active)
3  O=C(N/N=C(\c1ccccc1)c1cccnc1)c1cccc(F)c1  Type-1 angiotensin II receptor (Homo sapiens, UniProt P30556)      10.8 µM (active)
